Test System: Acetylcholinesterase (Homo sapiens, UniProt P22303)
Sequence (P22303 whole entry): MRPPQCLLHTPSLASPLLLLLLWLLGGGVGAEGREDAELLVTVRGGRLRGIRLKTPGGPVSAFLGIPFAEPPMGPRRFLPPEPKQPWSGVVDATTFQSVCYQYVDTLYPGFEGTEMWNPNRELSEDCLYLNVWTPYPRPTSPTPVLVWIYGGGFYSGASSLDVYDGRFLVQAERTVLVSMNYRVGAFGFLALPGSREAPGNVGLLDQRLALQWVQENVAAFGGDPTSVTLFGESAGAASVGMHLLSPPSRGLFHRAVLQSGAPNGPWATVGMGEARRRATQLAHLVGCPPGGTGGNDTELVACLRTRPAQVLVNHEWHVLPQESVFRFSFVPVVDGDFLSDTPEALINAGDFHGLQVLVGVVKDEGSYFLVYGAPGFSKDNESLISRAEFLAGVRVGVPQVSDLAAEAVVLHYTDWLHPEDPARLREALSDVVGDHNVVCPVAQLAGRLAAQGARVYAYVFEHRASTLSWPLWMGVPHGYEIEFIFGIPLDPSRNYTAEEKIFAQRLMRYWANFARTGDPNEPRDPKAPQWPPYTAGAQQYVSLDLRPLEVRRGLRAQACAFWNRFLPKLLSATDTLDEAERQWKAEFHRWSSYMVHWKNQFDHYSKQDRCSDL
Experimental Details: Inhibition of recombinant human AChE using acetylthiocholine iodide as substrate by Ellman's method
Experimental Endpoint: IC50

Would you kindly share the measured IC50 for C#CCN(C)Cc1cc2cc(OCCCN3CCCCC3)ccc2n1C ?
530 nM

* * *

Test System: UniProtKB P06276
Sequence (P06276 whole entry): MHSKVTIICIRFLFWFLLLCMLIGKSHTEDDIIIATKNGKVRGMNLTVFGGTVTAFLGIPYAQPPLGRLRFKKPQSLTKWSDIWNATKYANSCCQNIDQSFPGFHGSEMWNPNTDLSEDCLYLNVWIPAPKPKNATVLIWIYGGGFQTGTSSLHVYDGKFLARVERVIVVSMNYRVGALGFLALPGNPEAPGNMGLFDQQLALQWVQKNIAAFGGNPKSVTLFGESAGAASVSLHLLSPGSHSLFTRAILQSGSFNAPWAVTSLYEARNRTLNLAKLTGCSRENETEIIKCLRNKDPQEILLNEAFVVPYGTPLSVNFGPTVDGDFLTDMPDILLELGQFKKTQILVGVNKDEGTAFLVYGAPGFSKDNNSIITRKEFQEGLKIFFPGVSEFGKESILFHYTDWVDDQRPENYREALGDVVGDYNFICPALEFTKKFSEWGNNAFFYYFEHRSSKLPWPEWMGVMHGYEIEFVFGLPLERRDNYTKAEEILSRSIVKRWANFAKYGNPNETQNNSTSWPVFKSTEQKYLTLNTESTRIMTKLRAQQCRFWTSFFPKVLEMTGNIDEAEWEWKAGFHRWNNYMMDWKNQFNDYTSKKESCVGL
Experimental Details: Inhibition of human plasma BuChE using acetylthiocholine iodide as substrate by Ellman's method
Experimental Endpoint: pIC50
Please treat pIC50 as minus the base-10 logarithm of the molar concentration.

Would you kindly share the measured pIC50 for C#CCN(C)Cc1cc2cc(OCCCN3CCCCC3)ccc2n1C ?
5.77

* * *

Test System: UniProt:Q9Y5N1
Sequence (Q9Y5N1 whole entry): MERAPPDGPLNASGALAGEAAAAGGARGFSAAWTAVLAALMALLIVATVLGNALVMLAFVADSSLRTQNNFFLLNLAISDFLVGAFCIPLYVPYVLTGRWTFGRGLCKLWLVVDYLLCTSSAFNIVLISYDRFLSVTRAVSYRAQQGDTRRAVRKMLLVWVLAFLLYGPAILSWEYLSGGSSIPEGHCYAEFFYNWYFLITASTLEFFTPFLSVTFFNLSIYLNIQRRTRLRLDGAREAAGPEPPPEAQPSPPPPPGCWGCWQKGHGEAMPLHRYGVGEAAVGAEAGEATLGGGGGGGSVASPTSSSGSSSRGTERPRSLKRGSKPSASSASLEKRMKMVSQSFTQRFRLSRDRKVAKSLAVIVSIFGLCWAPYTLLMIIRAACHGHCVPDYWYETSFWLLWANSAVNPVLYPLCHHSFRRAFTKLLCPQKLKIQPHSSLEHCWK
Experimental Endpoint: pKi
Please treat pKi as minus the base-10 logarithm of the molar concentration.

Would you kindly share the measured pKi for C#CCN(C)Cc1cc2cc(OCCCN3CCCCC3)ccc2n1C ?
7.97

* * *

Test System: Sigma intracellular receptor 2 (Rattus norvegicus)
Sequence (Q5U3Y7 whole entry): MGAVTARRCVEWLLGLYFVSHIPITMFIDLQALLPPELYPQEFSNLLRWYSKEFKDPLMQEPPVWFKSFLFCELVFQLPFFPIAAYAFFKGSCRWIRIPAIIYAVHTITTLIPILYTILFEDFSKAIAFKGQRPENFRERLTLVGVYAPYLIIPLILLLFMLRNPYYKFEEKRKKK
Experimental Details: Displacement of [3H]DTG from sigma2 receptor in rat liver membranes after 60 mins by liquid scintillation counting method
Experimental Endpoint: Ki (nM)
Report only the number, with the unit nM understood.

Would you kindly share the measured Ki for COc1ccc(CCN2CCN(CCCc3ccccc3)CC2)cc1OC [[11C]SA4503] ?
62.2

Do the same for OC1CCCCC1N1CCC(c2ccccc2)CC1 (racemic) please
63.4

Do the same for C#CCN(C)Cc1cc2cc(OCCCC3CCN(Cc4ccccc4)CC3)ccc2n1C please
50.3

Do the same for C#CCN(C)Cc1cc2cc(OCCCN3CCCCC3)ccc2n1C please
326
